FYI, the data here is from patent US6288070A.

Molecular target: adenosine A2 receptor (Rattus norvegicus)
Construct: from tissue
Sequence (P30543 whole entry): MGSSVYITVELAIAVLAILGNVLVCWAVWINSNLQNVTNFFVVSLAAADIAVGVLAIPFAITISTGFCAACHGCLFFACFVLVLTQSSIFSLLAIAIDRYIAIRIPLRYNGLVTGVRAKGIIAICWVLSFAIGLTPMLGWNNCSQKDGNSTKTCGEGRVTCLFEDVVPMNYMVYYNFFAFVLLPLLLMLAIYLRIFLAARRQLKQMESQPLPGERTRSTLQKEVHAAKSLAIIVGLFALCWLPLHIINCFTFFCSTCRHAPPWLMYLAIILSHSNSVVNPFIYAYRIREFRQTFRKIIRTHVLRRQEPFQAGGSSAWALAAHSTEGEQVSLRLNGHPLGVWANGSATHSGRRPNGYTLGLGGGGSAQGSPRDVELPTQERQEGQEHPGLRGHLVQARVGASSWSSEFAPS
Experiment: Adenosine A2 receptor binding capacity
Details: adenosine A2 receptor; read-out: Receptor binding capacity (IC50) Adenosine A2
property: pIC50
Please keep in mind that pIC50 is minus log10 of the molar concentration; only the number is needed.

compoundSmiles: CCCc1nc2nc[nH]c2c2nc(-c3ccccc3)nn12
testSystem: adenosine A2 receptor (Rattus norvegicus)
property: pIC50
numericResult: 6.94
//
compoundSmiles: c1ccc(-c2nc3nc[nH]c3c3nc(-c4cccnc4)nn23)cc1
testSystem: adenosine A2 receptor (Rattus norvegicus)
property: pIC50
numericResult: 7.51
//
compoundSmiles: CCCCCc1nc2nc[nH]c2c2nc(-c3ccccc3)nn12
testSystem: adenosine A2 receptor (Rattus norvegicus)
property: pIC50
numericResult: 6.69
//
compoundSmiles: CCCCCCCc1nc2nc[nH]c2c2nc(-c3ccccc3)nn12
testSystem: adenosine A2 receptor (Rattus norvegicus)
property: pIC50
numericResult: 5.43
//
compoundSmiles: CCCCc1nc2nc[nH]c2c2nc(-c3ccc(CC)cc3)nn12
testSystem: adenosine A2 receptor (Rattus norvegicus)
property: pIC50
numericResult: 5.74

Query: Which pIC50 is reported for this compound? Cc1cccc(-c2nc3nc[nH]c3c3nc(-c4ccccc4)nn23)c1
Response: 6.95

Query: # repeat for CCCCc1nc2nc[nH]c2c2nc(/C=C/c3ccccc3)nn12
Response: 6.14

Query: # repeat for CCCCc1nc2nc[nH]c2c2nc(-c3ccc4ccccc4c3)nn12
Response: 6.15
